Assay: thallium flux activation in parental CHO cells, counter-screen for KCNQ1 potentiator project (AID 493006);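 for activation: fluorescence ratio of max minus min over baseline after K+ and Tl+ depolarization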
Conditions: parental CHO-K1 cells, FluxOR thallium flux, at 10 µM
The source made the active and inactive calls.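 Rule for the calls: active = duplicate-averaged activation above buffer control mean plus 5 SD of those controls; inactive = the rest.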
Please state which outcome applies, choosing from active, inactive

Cc1ccccc1-c1nc(Cc2ccc(Cl)cc2)no1    inactive
CCC1(C)Cc2c(sc3nc(SC)[nH]c(=S)c23)CO1 (stereo not drawn)    active

Alright, here's another molecule for you.
**Q:** Field: outcome | Entry: `O=C(CCSc1ccccc1)Nc1ccc(S(=O)(=O)Nc2ncccn2)cc1`
**A:** inactive

====

Test system: TRPC4 beta (transient receptor potential cation channel C4), mouse
Assay: activators of mouse TRPC4 channel, confirmation, cell-based, Fluo4 calcium, HEK293 TRPC4beta/mu-opioid, duplicates, 10 µM (AID 2426);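 note: percent rise of integrated ratio over buffer wells lacking compound which define 0%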
Conditions: Fluo4 calcium fluorescence, at 10 µM; active compounds read high
Calls of active or inactive are those of the source.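 Rule for the calls: active = fluorescence ratio normalized to control raised more than 50% in primary screen plus both repeat runs; inactive = the rest.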
endpoint: activation

Would you please look over these solved cases?
O=C(N/N=C/c1cc([N+](=O)[O-])cc(Br)c1O)C12CC3CCC(CC(C3)C1)C2    82% (active)
Cc1sc2nc(CSc3ccccc3)nc(NCCN(C)C)c2c1C    173% (active)
O=S(=O)(c1ccc(Cl)cc1)N1CCN2CCCC2C1 (stereo unspecified)    103% (active)
Cc1cccc(C)c1OCC(O)CN (stereo unspecified)    90% (active)
Cc1cccc(C(=O)NNC(=S)NC(=O)c2cccs2)c1    158% (active)

Next item in the queue.
**Q:** For the compound shown here, CCn1cc(CN2CCCC(C(=O)Nc3ccc(-c4nc5ccccc5[nH]4)cc3)C2)c(C)n1 (stereo unspecified) , give the reported activation.
**A:** 169% (active)

====

Test system: transient receptor potential cation channel C4 beta (TRPC4), mouse
Experiment: activators of mouse TRPC4 channel, confirmation, cell-based, second round, Fluo4, HEK293 TRPC4beta/mu-opioid, 1 µM (AID 2461)
Settings: Fluo4 calcium fluorescence, at 1 µM
Activity calls are given as the source filed them.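 Rule for the calls: active = primary screen active and over 50% activation in each of two duplicate runs; inactive = the rest.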
Please state which outcome applies, choosing from 1 (yes) = active, 0 (no) = inactive

Reference set (2 entries):
COc1cccc(CC2(CO)CCCN(Cc3ccccc3-c3ccco3)C2)c1 (stereo not drawn)    0 (no)
COc1ccc(C(CNC(=O)c2cccc(S(=O)(=O)NCc3ccccc3)c2)N(C)C)cc1 (stereo not drawn)    1 (yes)

Alright, here's another molecule for you.
**Q:** Field: outcome | Entry: Cc1ccc(S(=O)(=O)Nc2cccc(C(=O)NCC(c3ccccc3)N(C)C)c2)cc1F (stereo not drawn)
**A:** 0 (no)

====

Target: Potassium voltage-gated channel subfamily KQT member 1 (Homo sapiens) (UniProt P51787)
Sequence (P51787 whole entry, looked up): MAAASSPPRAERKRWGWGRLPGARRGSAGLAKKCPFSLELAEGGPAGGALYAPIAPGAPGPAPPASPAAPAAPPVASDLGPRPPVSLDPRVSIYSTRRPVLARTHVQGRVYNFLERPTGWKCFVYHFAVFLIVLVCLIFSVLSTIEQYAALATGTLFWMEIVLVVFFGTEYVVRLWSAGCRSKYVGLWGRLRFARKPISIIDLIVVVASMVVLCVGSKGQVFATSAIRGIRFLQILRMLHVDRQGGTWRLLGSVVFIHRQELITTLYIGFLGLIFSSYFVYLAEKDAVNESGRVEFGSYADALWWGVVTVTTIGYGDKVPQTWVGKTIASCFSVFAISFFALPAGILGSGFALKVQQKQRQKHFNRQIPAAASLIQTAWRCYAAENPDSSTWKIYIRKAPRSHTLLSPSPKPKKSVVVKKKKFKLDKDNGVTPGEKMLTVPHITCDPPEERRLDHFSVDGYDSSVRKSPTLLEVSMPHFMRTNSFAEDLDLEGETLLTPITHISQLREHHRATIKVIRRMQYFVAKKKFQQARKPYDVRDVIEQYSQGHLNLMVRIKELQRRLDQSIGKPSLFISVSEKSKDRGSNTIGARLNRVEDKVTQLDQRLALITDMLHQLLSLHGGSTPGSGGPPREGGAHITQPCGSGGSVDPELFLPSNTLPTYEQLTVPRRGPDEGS
Assay: KCNQ1 potassium channel potentiators, confirmation, FluxOR thallium flux, CHO cells, duplicates (AID 493007);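 for potentiation: 0% = buffer-only wells and 100% = R-L3 activator control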
Conditions: KCNQ1 cell line, FluxOR thallium flux fluorescence, at 10 µM; active compounds read high, % of reference activator effect, buffer zero
Calls of active or inactive are those of the source.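 Rule for the calls: active = potentiation averaged over duplicate wells exceeding buffer-only control mean by more than 3 SD; inactive = the rest.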
endpoint: potentiation

Would you please look over these solved cases?
CCn1c(SC(C)C(=O)O)nc2sc3c(c2c1=O)CCC3 (stereo not given)    42.5% (active)
CCSc1nnc(-c2ccncc2)n1Cc1ccccc1    inactive
COc1ccc(CC(=O)NC(=S)Nc2cccc(C)c2)cc1    inactive
O=C(c1ccccc1)N1CCCC(c2ccc(Cl)cc2)=N1    inactive
O=C(NC(=S)Nc1ccccc1N1CCCCC1)c1ccc(F)cc1Cl    49.5% (active)
COc1cc(C(=O)Nc2ccc3c(c2)nc(C)n3C)cc(OC)c1OC    inactive

**Q:** For the compound shown here, `COCCn1c(SCC(=O)NCc2ccc3c(c2)OCO3)nnc1C(C)C` , give the reported potentiation.
**A:** inactive
